B1: SLC2A12 (parent)
chain: CLLGLGSLVLILSLSYTVLIVGRI

# Variants of: B1
# assay method text: protein stability index of a GFP-peptide fusion (GPS, HEK-293T) (PSI 1-6); higher = more stable;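 note: lentivirally expressed fusions sorted by FACS into six bins by GFP to DsRed ratio, PSI derived from sequencing read proportions per bin multiplied by bin number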
# condition context: c terminus: a fixed tail appended

mutant designation: S13D
protein stability index: 2.82

mutant designation: L12Y
protein stability index: 3.84

mutant designation: L3T
protein stability index: 1.32

mutant designation: L12S
protein stability index: 1.92

mutant designation: G22E
protein stability index: 3.84

mutant designation: V9H
protein stability index: 2.07

mutant designation: S13R
protein stability index: 1.87

mutant designation: G6A
protein stability index: 2.43

mutant designation: V21L
protein stability index: 2.77

mutant designation: I24H
protein stability index: 4.96

mutant designation: G22S
protein stability index: 2.04

mutant designation: V18H
protein stability index: 2.43

mutant designation: V21C
protein stability index: 3.06

mutant designation: L12V
protein stability index: 3.35

mutant designation: G6T
protein stability index: 2.06

mutant designation: S13I
protein stability index: 3.33

mutant designation: G6F
protein stability index: 2.27

mutant designation: L5Y
protein stability index: 3.19

mutant designation: L12Q
protein stability index: 3.11

mutant designation: L5Q
protein stability index: 2.45

mutant designation: I24W
protein stability index: 3.02

mutant designation: L12W
protein stability index: 3.73

mutant designation: L19R
protein stability index: 4.06

mutant designation: G22F
protein stability index: 3.4

mutant designation: T17Y
protein stability index: 2.3

mutant designation: S7K
protein stability index: 2.01

mutant designation: S7I
protein stability index: 2.45

mutant designation: L19H
protein stability index: 3.95

mutant designation: L14H
protein stability index: 3.01

mutant designation: I24R
protein stability index: 4.47

mutant designation: L5G
protein stability index: 3.97

mutant designation: L3N
protein stability index: 2.92

mutant designation: I24L
protein stability index: 2.31

mutant designation: I11D
protein stability index: 3.63

mutant designation: Y16M
protein stability index: 3.02

mutant designation: S15I
protein stability index: 3.21

mutant designation: L3K
protein stability index: 2.17

mutant designation: L12N
protein stability index: 2.87

mutant designation: V9F
protein stability index: 3.79

mutant designation: I24S
protein stability index: 4.47

mutant designation: V9Y
protein stability index: 2.23

mutant designation: Y16W
protein stability index: 1.91

mutant designation: G4C
protein stability index: 2.73

mutant designation: L5R
protein stability index: 2.84

mutant designation: L19V
protein stability index: 3.24

mutant designation: G22Q
protein stability index: 3.23

mutant designation: G22V
protein stability index: 3.25

mutant designation: L12I
protein stability index: 1.58

mutant designation: I20Q
protein stability index: 3.17

mutant designation: I24K
protein stability index: 2.5

mutant designation: I24V
protein stability index: 2.79

mutant designation: S15C
protein stability index: 4.02

mutant designation: L10K
protein stability index: 2.9

mutant designation: C1W
protein stability index: 1.27

mutant designation: I11W
protein stability index: 1.42

mutant designation: L12P
protein stability index: 2.04

mutant designation: T17F
protein stability index: 3.38

mutant designation: S13N
protein stability index: 1.87

mutant designation: S7N
protein stability index: 2.72

mutant designation: L2K
protein stability index: 1.76

mutant designation: L12T
protein stability index: 2.44

mutant designation: S15D
protein stability index: 2.87

mutant designation: G6Y
protein stability index: 3.29

mutant designation: L2H
protein stability index: 3.48

mutant designation: G4D
protein stability index: 3.12

mutant designation: C1R
protein stability index: 2.88

mutant designation: I11E
protein stability index: 4.57
